# studyTarget: Tyrosine-protein phosphatase non-receptor type 2 (Homo sapiens, UniProt P17706)
# Sequence (P17706 whole entry): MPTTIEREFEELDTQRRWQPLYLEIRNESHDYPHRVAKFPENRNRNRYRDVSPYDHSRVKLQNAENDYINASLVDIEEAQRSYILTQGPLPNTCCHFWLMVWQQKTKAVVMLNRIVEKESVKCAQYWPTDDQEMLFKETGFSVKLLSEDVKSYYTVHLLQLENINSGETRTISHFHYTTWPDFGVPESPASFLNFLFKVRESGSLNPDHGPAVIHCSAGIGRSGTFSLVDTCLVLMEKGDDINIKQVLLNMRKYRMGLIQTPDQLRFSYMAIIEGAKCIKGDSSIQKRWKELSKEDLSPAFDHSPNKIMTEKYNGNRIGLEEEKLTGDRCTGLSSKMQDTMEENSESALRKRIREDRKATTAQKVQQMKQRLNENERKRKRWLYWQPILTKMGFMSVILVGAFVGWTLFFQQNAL
# protocolDescription: Inhibition of human N-terminal His6-tagged TCPTP catalytic domain (1 to 336 residues) expressed in Escherichia coli strain Rosetta2 (DE3) using DiFMUP as substrate preincubated for 10 mins followed by substrate addition and measured after 10 mins by fluorescence assay
// IC50 lookup, one value per entry
Return type: number; implicit unit µM.

Please give the measured IC50 for this compound: Nc1ccc(NC(=O)C(=O)O)cc1
478

---
Please give the measured IC50 for this compound: CC1=C(O)C(=O)C=C2C1=CC=C1[C@@]2(C)CC[C@@]2(C)[C@@H]3C[C@](C)(C(=O)O)CC[C@]3(C)CC[C@]12C
18.8

---

# studyTarget: Receptor-type tyrosine-protein phosphatase epsilon (Homo sapiens)
# Sequence (P23469 whole entry, the tested form may be a part): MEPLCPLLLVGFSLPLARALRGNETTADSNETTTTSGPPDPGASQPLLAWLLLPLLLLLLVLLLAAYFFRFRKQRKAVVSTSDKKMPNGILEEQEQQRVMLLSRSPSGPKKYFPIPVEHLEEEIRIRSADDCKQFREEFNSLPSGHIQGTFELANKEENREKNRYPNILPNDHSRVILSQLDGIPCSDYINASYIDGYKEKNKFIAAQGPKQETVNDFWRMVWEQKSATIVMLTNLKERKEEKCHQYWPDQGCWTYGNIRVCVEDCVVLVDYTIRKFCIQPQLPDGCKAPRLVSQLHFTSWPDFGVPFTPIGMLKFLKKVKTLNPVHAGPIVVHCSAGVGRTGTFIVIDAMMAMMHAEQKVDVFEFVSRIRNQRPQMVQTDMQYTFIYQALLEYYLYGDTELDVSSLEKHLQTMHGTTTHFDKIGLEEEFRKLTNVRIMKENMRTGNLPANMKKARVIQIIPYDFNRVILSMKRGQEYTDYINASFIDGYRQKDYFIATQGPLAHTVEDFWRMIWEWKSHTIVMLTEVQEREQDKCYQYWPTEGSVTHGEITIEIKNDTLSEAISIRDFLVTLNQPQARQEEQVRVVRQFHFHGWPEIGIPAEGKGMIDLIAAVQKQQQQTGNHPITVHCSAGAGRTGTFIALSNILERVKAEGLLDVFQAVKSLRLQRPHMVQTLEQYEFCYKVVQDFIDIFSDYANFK
# protocolDescription: Inhibition of human PTPRE (107 to 707 residues) expressed in Escherichia coli strain BL21(DE3) using DiFMUP as substrate preincubated for 10 mins followed by substrate addition and measured after 10 mins by fluorescence assay
pIC50: −log10 of the molar value.
measuredAttribute: pIC50

Please give the measured pIC50 for this compound: CC1=C(O)C(=O)C=C2C1=CC=C1[C@@]2(C)CC[C@@]2(C)[C@@H]3C[C@](C)(C(=O)O)CC[C@]3(C)CC[C@]12C
< 3.30

---

# studyTarget: Tyrosine-protein phosphatase non-receptor type 11 (Homo sapiens)
# Sequence (Q06124 whole entry): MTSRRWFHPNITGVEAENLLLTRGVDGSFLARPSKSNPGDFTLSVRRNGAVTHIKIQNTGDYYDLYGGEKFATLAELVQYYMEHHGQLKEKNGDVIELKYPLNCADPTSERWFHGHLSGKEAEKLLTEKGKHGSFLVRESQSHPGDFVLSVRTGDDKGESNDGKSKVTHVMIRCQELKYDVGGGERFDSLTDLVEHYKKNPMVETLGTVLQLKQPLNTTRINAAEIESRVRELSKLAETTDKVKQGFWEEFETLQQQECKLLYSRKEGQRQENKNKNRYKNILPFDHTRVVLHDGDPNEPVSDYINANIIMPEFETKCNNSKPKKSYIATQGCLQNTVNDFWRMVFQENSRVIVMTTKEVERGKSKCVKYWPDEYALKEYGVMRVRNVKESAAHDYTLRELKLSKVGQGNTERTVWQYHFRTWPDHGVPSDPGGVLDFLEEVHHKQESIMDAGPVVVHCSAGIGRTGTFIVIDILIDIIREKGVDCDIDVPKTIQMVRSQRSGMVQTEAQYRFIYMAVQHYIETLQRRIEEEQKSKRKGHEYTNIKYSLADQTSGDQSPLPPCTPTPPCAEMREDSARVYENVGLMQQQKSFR
# protocolDescription: Inhibition of human SHP2 (246 to 527 residues) expressed in Escherichia coli strain BL21(DE3) using DiFMUP as substrate preincubated for 10 mins followed by substrate addition and measured after 10 mins by fluorescence assay
measuredAttribute: IC50 (µM)
Return type: number; implicit unit µM.

Please give the measured IC50 for this compound: CC1=C(O)C(=O)C=C2C1=CC=C1[C@@]2(C)CC[C@@]2(C)[C@@H]3C[C@](C)(C(=O)O)CC[C@]3(C)CC[C@]12C
4.1

---

# studyTarget: Tyrosine-protein phosphatase non-receptor type 6 (Homo sapiens)
# Sequence (P29350 whole entry, the tested form may be a part): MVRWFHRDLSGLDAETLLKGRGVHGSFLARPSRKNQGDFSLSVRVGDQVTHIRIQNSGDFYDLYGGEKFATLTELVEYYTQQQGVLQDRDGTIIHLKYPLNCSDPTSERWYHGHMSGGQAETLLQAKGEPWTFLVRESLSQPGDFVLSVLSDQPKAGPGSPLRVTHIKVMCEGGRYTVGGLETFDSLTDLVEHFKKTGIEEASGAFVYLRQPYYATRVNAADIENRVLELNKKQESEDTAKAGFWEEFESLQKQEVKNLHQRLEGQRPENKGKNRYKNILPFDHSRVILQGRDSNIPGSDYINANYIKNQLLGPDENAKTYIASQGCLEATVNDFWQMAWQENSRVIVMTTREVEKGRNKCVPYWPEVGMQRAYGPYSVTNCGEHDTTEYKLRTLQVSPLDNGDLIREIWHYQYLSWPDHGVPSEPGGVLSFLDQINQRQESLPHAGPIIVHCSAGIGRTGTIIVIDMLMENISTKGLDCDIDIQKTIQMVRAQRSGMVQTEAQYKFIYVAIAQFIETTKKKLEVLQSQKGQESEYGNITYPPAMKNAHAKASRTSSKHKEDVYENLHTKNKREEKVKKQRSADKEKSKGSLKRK
# protocolDescription: Inhibition of human SHP1 (245 to 521 residues) expressed in Escherichia coli strain BL21(DE3) using DiFMUP as substrate preincubated for 10 mins followed by substrate addition and measured after 10 mins by fluorescence assay
measuredAttribute: pIC50
Please note pIC50 is a logarithmic value: minus log10 of concentration in mol/L. Answer with that number alone.

Please give the measured pIC50 for this molecule: CC1=C(O)C(=O)C=C2C1=CC=C1[C@@]2(C)CC[C@@]2(C)[C@@H]3C[C@](C)(C(=O)O)CC[C@]3(C)CC[C@]12C [CELASTROL]
5.51

---

// pIC50 lookup, one value per entry
# studyTarget: Tyrosine-protein phosphatase non-receptor type 1 (Homo sapiens, UniProt P18031)
# Sequence (P18031 whole entry, the tested form may be a part): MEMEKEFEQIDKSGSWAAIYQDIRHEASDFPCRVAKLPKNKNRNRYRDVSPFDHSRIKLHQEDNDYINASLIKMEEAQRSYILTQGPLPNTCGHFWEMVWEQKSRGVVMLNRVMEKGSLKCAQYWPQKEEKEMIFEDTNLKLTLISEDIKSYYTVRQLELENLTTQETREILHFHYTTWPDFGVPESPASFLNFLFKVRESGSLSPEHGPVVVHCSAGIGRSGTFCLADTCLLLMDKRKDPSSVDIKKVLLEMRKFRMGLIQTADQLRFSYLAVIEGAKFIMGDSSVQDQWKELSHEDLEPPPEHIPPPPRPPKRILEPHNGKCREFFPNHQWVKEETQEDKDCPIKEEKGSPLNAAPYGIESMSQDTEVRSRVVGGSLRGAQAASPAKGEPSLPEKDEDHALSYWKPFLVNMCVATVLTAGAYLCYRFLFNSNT
# protocolDescription: Inhibition of human N-terminal His6-tagged PTP1B catalytic domain (1 to 393 residues) expressed in Escherichia coli strain Rosetta2 (DE3) using DiFMUP as substrate preincubated for 10 mins followed by substrate addition and measured after 10 mins by fluorescence assay
Please note pIC50 is a logarithmic value: minus log10 of concentration in mol/L. Answer with that number alone.

Please give the measured pIC50 for this molecule: Nc1ccc(NC(=O)C(=O)O)cc1
3.04

---
Please give the measured pIC50 for this molecule: CC1=C(O)C(=O)C=C2C1=CC=C1[C@@]2(C)CC[C@@]2(C)[C@@H]3C[C@](C)(C(=O)O)CC[C@]3(C)CC[C@]12C [CELASTROL]
5.68

---

# studyTarget: Tyrosine-protein phosphatase non-receptor type 1 (Homo sapiens, UniProt P18031)
# protocolDescription: Inhibition of human N-terminal His6-tagged PTP1B catalytic domain (1 to 298 residues) expressed in Escherichia coli strain Rosetta2 (DE3) using DiFMUP as substrate preincubated for 10 mins followed by substrate addition and measured after 10 mins by fluorescence assay
measuredAttribute: pIC50
Please note pIC50 is a logarithmic value: minus log10 of concentration in mol/L. Answer with that number alone.

Please give the measured pIC50 for this molecule: CC1=C(O)C(=O)C=C2C1=CC=C1[C@@]2(C)CC[C@@]2(C)[C@@H]3C[C@](C)(C(=O)O)CC[C@]3(C)CC[C@]12C
5.32

---

# studyTarget: Phosphatidylinositol 3,4,5-trisphosphate 3-phosphatase and dual-specificity protein phosphatase PTEN (Homo sapiens, UniProt P60484)
# Sequence (P60484 whole entry, the tested form may be a part): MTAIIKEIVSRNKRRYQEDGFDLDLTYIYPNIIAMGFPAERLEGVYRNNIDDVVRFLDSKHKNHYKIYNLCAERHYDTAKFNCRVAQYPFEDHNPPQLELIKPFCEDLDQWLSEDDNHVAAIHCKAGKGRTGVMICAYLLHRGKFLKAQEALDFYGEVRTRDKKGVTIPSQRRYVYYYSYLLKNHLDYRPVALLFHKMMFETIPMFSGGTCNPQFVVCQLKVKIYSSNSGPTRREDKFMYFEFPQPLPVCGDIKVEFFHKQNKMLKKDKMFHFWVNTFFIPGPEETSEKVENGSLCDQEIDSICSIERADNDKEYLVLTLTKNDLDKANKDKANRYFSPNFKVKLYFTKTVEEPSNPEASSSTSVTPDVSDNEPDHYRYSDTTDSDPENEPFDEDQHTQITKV
# protocolDescription: Inhibition of human PTEN (1 to 403 residues) expressed in Escherichia coli strain BL21(DE3) using DiFMUP as substrate preincubated for 10 mins followed by substrate addition and measured after 10 mins by fluorescence assay
measuredAttribute: IC50 (µM)
Return type: number; implicit unit µM.

Please give the measured IC50 for this molecule: CC1=C(O)C(=O)C=C2C1=CC=C1[C@@]2(C)CC[C@@]2(C)[C@@H]3C[C@](C)(C(=O)O)CC[C@]3(C)CC[C@]12C
13.3
